Test system: CCRF-CEM
Experiment: NCI tumour cell line growth inhibition, 48 h
Calls of active or inactive are those of the source. Cut-off read from the data, not from the text of the source: active = GI50 up to about 1.1 µM and inactive = higher.
Entry note: the call must match one of yes for active, no for inactive

## Input Please let me know the test result on file for CCCCCC1CC=CC(NC(=O)OCc2ccccc2)C1/C=C/CCCC1OCCO1 (stereo unspecified) .
## Output no

## Input Please let me know the test result on file for COc1ccc(N2N=NN(C(C)C)/C2=C(/Cl)c2nnnn2-c2ccc(OC)cc2)cc1 .
## Output no

## Input Please let me know the test result on file for Cc1cn([C@@H]2O[C@H](CO[Si](C)(C)C(C)(C)C)[C@]3(O[C@H]3C(=O)NO)[C@H]2O[Si](C)(C)C(C)(C)C)c(=O)[nH]c1=O .
## Output yes

## Input Please let me know the test result on file for CC(C)=CCNc1ncnc2c1ncn2CCC(=O)O .
## Output no

## Input Please let me know the test result on file for CCOC(=O)CC[C@@H](NC(=O)c1ccc(NCc2ccc3nc(OC)c(OC)nc3c2)cc1)C(=O)OCC .
## Output no

## Input Please let me know the test result on file for NC(Cc1ccc2nc3c4ccccc4c(=O)cc-3oc2c1)C(=O)O (stereo unspecified) .
## Output no
